Biological target: T1, cynomolgus monkey SIRPγ on CHO cells (cynomolgus monkey, UniProt Q9P1W8 29-386 (human entry))
T1 construct: also called Cyno SIRPγ CHO
T1 chain: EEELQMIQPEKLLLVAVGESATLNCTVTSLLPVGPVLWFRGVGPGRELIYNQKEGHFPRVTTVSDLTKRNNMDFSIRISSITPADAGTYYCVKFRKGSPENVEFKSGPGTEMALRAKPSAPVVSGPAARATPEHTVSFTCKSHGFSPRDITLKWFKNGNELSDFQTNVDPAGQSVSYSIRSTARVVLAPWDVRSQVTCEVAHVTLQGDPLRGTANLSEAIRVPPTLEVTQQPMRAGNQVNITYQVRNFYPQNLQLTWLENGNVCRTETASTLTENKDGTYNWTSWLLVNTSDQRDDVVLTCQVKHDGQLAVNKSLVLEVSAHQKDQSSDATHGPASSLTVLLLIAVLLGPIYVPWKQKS
Assay: flow cytometry, myc-scFv PPE
Entries annotated with measured MFI fold change over parental CHO
The response must be a number in fold with no trailing unit.

Antibody 50 (scFv, V domains shown, scFv in crude PPE, V5/myc-tagged) VH: QVQLVQSGAEVKKPGASVKVSCKASGYTFTGYYMHWVRQAPGQGLEWMGTINPSGGSTSYAQKFQGRVTMTRDTSTSTVYMELSSLRSEDTAVYYCVKGNGYYDLWGQGTLVTVSS VL: DIQMTQSPSSLSASVGDRVTITCRASQSISSWLAWYQQKPGKAPKLLIYDTSNLQGGVPSRFSGSGSGTDFTLTISSLQPEDFATYYCQQYDSFPWTFGQGTKVEIK
30.8

As a next step, examine the binder that follows.
Prompt: For the binder Antibody 37 (scFv, V domains shown, scFv in crude PPE, V5/myc-tagged) VH: QVQLVQSGAEVKKPGASVKVSCKASGYTLNNYDINWVRQAPGQGLEWMGWISGYNGNTNYAQKLQGRVTMTRDTSTSTVYMELSSLRSEDTAVYYCARVGSSWEENDQWGQGTLVTVSS VL: DIQMTQSPSSLSASVGDRVTITCRASQSISRWLAWYQQKPGKAPKLLIYAASSLESGVPSRFSGSGSGTDFTLTISSLQPEDFATYYCQQTHSFPLTFGGGTKVEIK , give its reported MFI fold change over parental CHO.
Response: 15.5
